test system: hrtAB promoter (HssRS activation; CgoX activation); assay: XylE colorimetric reporter assay (phrt.xylE), activation of HssRS / hrtAB expression; assay type: cell-based, Staphylococcus aureus strain Newman; details: Staphylococcus aureus, NEWMAN, read-out: logEC50 (converted)
Each item that follows carries a reported EC50.
measured endpoint: EC50

> print(dat)
                               input.smiles  measured
1   Cc1ccc(-c2cc(-c3ccc4ccccc4c3O)n[nH]2)s1   13.1 µM
2    Oc1c(-c2cc(-c3ccoc3)[nH]n2)ccc2ccccc12   8.17 µM
3  Cn1ncc2cc(-c3cc(-c4ccc5ccccc5c4O)n[nH]3)ccc21   8.18 µM
4         Oc1cc(F)ccc1-c1cc(-c2ccco2)[nH]n1   20.9 µM
5  Cc1nn(C)c(C)c1-c1cc(-c2ccc3ccccc3c2O)n[nH]1   28.5 µM
6    Oc1c(-c2cc(-c3ccco3)[nH]n2)ccc2ccccc12   10.5 µM
7    Oc1c(-c2cc(-c3cccs3)[nH]n2)ccc2ccccc12   19.9 µM
8    Oc1c(-c2cc(-c3ccsc3)[nH]n2)ccc2ccccc12   26.2 µM

====

System: hrtAB promoter (HssRS activation; CgoX activation)
Test: XylE colorimetric reporter assay (phrt.xylE), activation of HssRS / hrtAB expression
Assay type: cell-based, Staphylococcus aureus strain Newman
Settings: Staphylococcus aureus, NEWMAN
Procedure: To maximize the production of coproporphyrin III and thereby increase blue-light mediated killing of S. aureus, synthesized analogs of VU0038882 were tested. […] When the cells were ready to be lysed and data collected, samples were removed from the −80° C. freezer, allowed to thaw, and resuspended in 150 μL of lysis buffer (100 mM potassium phosphate pH=8.0, 10% v/v acetone, 20 μg/mL lysostaphin) before incubation in a 37° C. bead bath for 20 minutes and then cooled for 5 minutes on ice. […]
pEC50: −log10 of the molar value.
Each item that follows carries a reported pEC50.
measured endpoint: pEC50

> print(dat)
                               input.smiles  measured
1    Oc1c(-c2cc(-c3ccsc3)[nH]n2)ccc2ccccc12      4.58
2    Oc1c(-c2cc(-c3ccco3)[nH]n2)ccc2ccccc12      4.98
3  Cc1nn(C)c(C)c1-c1cc(-c2ccc3ccccc3c2O)n[nH]1      4.55
4    Oc1c(-c2cc(-c3ccoc3)[nH]n2)ccc2ccccc12      5.09
5   Cc1ccc(-c2cc(-c3ccc4ccccc4c3O)n[nH]2)s1      4.88
6  Cn1ncc2cc(-c3cc(-c4ccc5ccccc5c4O)n[nH]3)ccc21      5.09
7    Oc1c(-c2cc(-c3cccs3)[nH]n2)ccc2ccccc12      4.70
8         Oc1cc(F)ccc1-c1cc(-c2ccco2)[nH]n1      4.68
